// note: pKi values for D(3) dopamine receptor (Homo sapiens) were reported in different studies
pKi: −log10 of the molar value.

Check out these entries, answers already filled in.
compound	pKi
COCCc1cc(N2CCN(CC[C@H]3CC[C@H](NC(C)=O)CC3)[C@H](C)C2)nc(C(C)(C)C)n1	> 7.30
Cc1nc(OC[C@@H]2CCCN2)ccc1NS(=O)(=O)c1ccc(C(C)C)cc1	8.00 to 9.00
Cc1nc(N2CCNCC2)ccc1NS(=O)(=O)c1ccc(C(C)C(F)(F)F)cc1 (centres unmarked)	> 8.00
COCCc1cc(N2CCN(CC[C@H]3CC[C@H](NC(=O)C4CC(O)(C(F)(F)F)C4)CC3)CC2)nc(C(C)(C)C)n1 (relative stereo)	> 8.00

// next entry
Prompt: Would you please give the reported pKi of CC(C)(C)c1cc(N2CCN(CC[C@H]3CC[C@@H](NC(=O)[C@H]4CC[C@H](O)CC4)CC3)CC2)nc(C(C)(C)C)n1 with D(3) dopamine receptor (Homo sapiens)?
Completion: > 7.30

====

pKi: −log10 of the molar value.
// note: pKi values for UniProt P35462 were reported in different studies
Sequence (P35462 whole entry): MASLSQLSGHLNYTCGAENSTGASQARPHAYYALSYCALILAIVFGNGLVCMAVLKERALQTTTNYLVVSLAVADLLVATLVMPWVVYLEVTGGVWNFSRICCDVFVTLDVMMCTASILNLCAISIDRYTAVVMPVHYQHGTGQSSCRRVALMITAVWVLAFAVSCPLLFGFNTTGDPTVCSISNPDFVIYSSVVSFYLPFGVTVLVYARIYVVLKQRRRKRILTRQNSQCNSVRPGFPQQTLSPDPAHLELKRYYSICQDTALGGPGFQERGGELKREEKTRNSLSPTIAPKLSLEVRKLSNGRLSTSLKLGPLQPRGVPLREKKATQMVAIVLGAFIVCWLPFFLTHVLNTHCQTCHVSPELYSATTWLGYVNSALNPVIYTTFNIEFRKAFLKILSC

Check out these entries, answers already filled in.
CCCN1CC[C@@H](c2ccc(NS(=O)(=O)c3cccc(-c4csc(C)n4)c3)cc2)C1 6.82 to 7.30
CCCN1CC[C@@H](c2ccc(NS(=O)(=O)c3cccc(N4CCCC4)c3)cc2)C1 7.30 to 8.00
CC(C)(C)c1nc(N2CCN(CC[C@H]3CC[C@H](NC(=O)[C@H]4CC[C@H](O)CC4)CC3)CC2)cc(C(F)(F)F)n1 > 8.00
COCCc1cc(N2CCN(CC[C@H]3CC[C@H](NC(C)=O)CC3)CC2)nc(C(C)(C)C)n1 > 8.00
COCCc1cc(N2CCN(CC[C@H]3CC[C@H](NC=O)CC3)[C@H](C)C2)nc(C(C)(C)C)n1 > 7.30
Cc1nc(N2CCNCC2)ccc1NS(=O)(=O)c1ccc([C@@H](C)CF)cc1 > 8.00
COCCc1cc(N2CCN(CC[C@H]3C[C@@H](NC=O)C3)CC2)nc(C(C)(C)C)n1 > 7.30

// next entry
Prompt: Would you please give the reported pKi of COCCc1cc(N2CCN(CC[C@H]3CC[C@@H](NC(C)=O)CC3)[C@@H](C)C2)nc(C(C)(C)C)n1 with UniProt P35462?
Completion: > 8.00

====

// note: pKi values for D(3) dopamine receptor (Homo sapiens) were reported in different studies
The scale used: pKi is minus the common logarithm of the concentration in molar units.

chemical-string	pKi
CCCN1C[C@@H]2C[C@@H](c3ccc(NS(=O)(=O)c4ccc(OC(F)(F)F)cc4)cc3)[C@@H]2C1	8.27
Cn1c(SCCCN2CCc3ccc(C(=O)c4cccc(F)c4)cc3C2)nnc1-c1cccnc1	7.39

// next entry
Prompt: Would you please give the reported pKi of Cc1cc(N2CCN(CCCCn3cc(C)c(O)nc3=O)CC2)nc(C(C)(C)C)n1 with D(3) dopamine receptor (Homo sapiens)?
Completion: 8.12

====

// note: Ki values for D(3) dopamine receptor (Homo sapiens, UniProt P35462) were reported in different studies

molecule	Ki
CCCN1C[C@@H](CF)[C@H](c2ccc(NS(=O)(=O)c3cccc(C(F)(F)F)c3)cc2)C1 (relative stereo)	10 to 50 nM
CCCNCCOc1ccc(NS(=O)(=O)c2ccc(CCF)cc2)c(OC)n1	1 to 10 nM
COCCc1cc(N2CCN(CC[C@H]3CC[C@H](NC(C)=O)CC3)C[C@@H]2C)nc(C(C)(C)C)n1	< 10 nM

Prompt: Answer with the recorded Ki of CCCN(CCC)CCOc1ccc(NS(=O)(=O)c2ccc(C(C)C)cc2)cn1 only.
Completion: 10 to 50 nM
